TEST_CONTEXT: 298.15 K; 101.3 kPa; Liquid; Falling or rolling sphere viscometry

>  <MOLECULE>
COC(=O)OC [dimethyl carbonate]

>  <viscosity (mPa·s)>
0.587

$$$$
>  <MOLECULE>
CCCC[n+]1ccn(C)c1.O=S(=O)([N-]S(=O)(=O)C(F)(F)F)C(F)(F)F

>  <viscosity (mPa·s)>
48.93

$$$$
>  <MOLECULE>
CCn1cc[n+](C)c1.O=S(=O)([N-]S(=O)(=O)C(F)(F)F)C(F)(F)F

>  <viscosity (mPa·s)>
33.52

$$$$
>  <MOLECULE>
CCOC(=O)OCC [diethyl carbonate]

>  <viscosity (mPa·s)>
0.757

$$$$

###

TEST_CONTEXT: 298.15 K; 101.3 kPa; Liquid; Vibrating tube method
Numbers after ± are expanded uncertainties.
PARAMETER: mass density

>  <MOLECULE>
CCn1cc[n+](C)c1.O=S(=O)([N-]S(=O)(=O)C(F)(F)F)C(F)(F)F

>  <RESULT>
1518.39 ± 3.7 kg/m3

$$$$
>  <MOLECULE>
CCCC[n+]1ccn(C)c1.O=S(=O)([N-]S(=O)(=O)C(F)(F)F)C(F)(F)F

>  <RESULT>
1436.01 ± 3.5 kg/m3

$$$$
>  <MOLECULE>
COC(=O)OC [dimethyl carbonate]

>  <RESULT>
1063.27 ± 2.6 kg/m3

$$$$
>  <MOLECULE>
CCOC(=O)OCC [diethyl carbonate]

>  <RESULT>
969.3 ± 2.3 kg/m3

$$$$

###

Measured viscosity of individual entries
TEST_CONTEXT: 303.15 K; 101.3 kPa; Liquid; Falling or rolling sphere viscometry

>  <COMPOUND>
CCOC(=O)OCC [diethyl carbonate]

>  <RESULT_UNITS>
mPa·s

>  <viscosity>
0.708

$$$$
>  <COMPOUND>
COC(=O)OC [dimethyl carbonate]

>  <RESULT_UNITS>
mPa·s

>  <viscosity>
0.552

$$$$
>  <COMPOUND>
CCCC[n+]1ccn(C)c1.O=S(=O)([N-]S(=O)(=O)C(F)(F)F)C(F)(F)F

>  <RESULT_UNITS>
mPa·s

>  <viscosity>
39.84

$$$$
>  <COMPOUND>
CCn1cc[n+](C)c1.O=S(=O)([N-]S(=O)(=O)C(F)(F)F)C(F)(F)F

>  <RESULT_UNITS>
mPa·s

>  <viscosity>
28.35

$$$$

###

Measured mass density of individual entries
TEST_CONTEXT: 288.15 K; 101.3 kPa; Liquid; Vibrating tube method
± gives the expanded uncertainty stated by the source.
PARAMETER: mass density

>  <COMPOUND>
CCn1cc[n+](C)c1.O=S(=O)([N-]S(=O)(=O)C(F)(F)F)C(F)(F)F

>  <PARAMETER>
mass density

>  <RESULT>
1528.55 ± 3.7 kg/m3

$$$$
>  <COMPOUND>
CCCC[n+]1ccn(C)c1.O=S(=O)([N-]S(=O)(=O)C(F)(F)F)C(F)(F)F

>  <PARAMETER>
mass density

>  <RESULT>
1445.66 ± 3.5 kg/m3

$$$$
>  <COMPOUND>
COC(=O)OC [dimethyl carbonate]

>  <PARAMETER>
mass density

>  <RESULT>
1076.39 ± 2.6 kg/m3

$$$$
>  <COMPOUND>
CCOC(=O)OCC [diethyl carbonate]

>  <PARAMETER>
mass density

>  <RESULT>
980.49 ± 2.4 kg/m3

$$$$

###

TEST_CONTEXT: 308.15 K; 101.3 kPa; Liquid; Falling or rolling sphere viscometry
PARAMETER: viscosity (mPa·s)

>  <COMPOUND>
CCOC(=O)OCC [diethyl carbonate]

>  <PARAMETER>
viscosity

>  <MEASURED_NUMBER>
0.664

$$$$
>  <COMPOUND>
CCCC[n+]1ccn(C)c1.O=S(=O)([N-]S(=O)(=O)C(F)(F)F)C(F)(F)F

>  <PARAMETER>
viscosity

>  <MEASURED_NUMBER>
32.91

$$$$
>  <COMPOUND>
COC(=O)OC [dimethyl carbonate]

>  <PARAMETER>
viscosity

>  <MEASURED_NUMBER>
0.52

$$$$
>  <COMPOUND>
CCn1cc[n+](C)c1.O=S(=O)([N-]S(=O)(=O)C(F)(F)F)C(F)(F)F

>  <PARAMETER>
viscosity

>  <MEASURED_NUMBER>
24.15

$$$$

###

TEST_CONTEXT: 303.15 K; 101.3 kPa; Liquid; Vibrating tube method
± gives the expanded uncertainty stated by the source.
Measured mass density of individual entries
PARAMETER: mass density

>  <COMPOUND>
CCn1cc[n+](C)c1.O=S(=O)([N-]S(=O)(=O)C(F)(F)F)C(F)(F)F

>  <RESULT>
1513.34 ± 3.7 kg/m3

$$$$
>  <COMPOUND>
CCCC[n+]1ccn(C)c1.O=S(=O)([N-]S(=O)(=O)C(F)(F)F)C(F)(F)F

>  <RESULT>
1431.21 ± 3.5 kg/m3

$$$$
>  <COMPOUND>
CCOC(=O)OCC [diethyl carbonate]

>  <RESULT>
963.66 ± 2.3 kg/m3

$$$$
>  <COMPOUND>
COC(=O)OC [dimethyl carbonate]

>  <RESULT>
1056.65 ± 2.5 kg/m3

$$$$

###

TEST_CONTEXT: 328.15 K; 101.3 kPa; Liquid; Falling or rolling sphere viscometry

>  <COMPOUND>
CCOC(=O)OCC [diethyl carbonate]

>  <viscosity (mPa·s)>
0.525

$$$$
>  <COMPOUND>
CCn1cc[n+](C)c1.O=S(=O)([N-]S(=O)(=O)C(F)(F)F)C(F)(F)F

>  <viscosity (mPa·s)>
14.26

$$$$
>  <COMPOUND>
COC(=O)OC [dimethyl carbonate]

>  <viscosity (mPa·s)>
0.429

$$$$
>  <COMPOUND>
CCCC[n+]1ccn(C)c1.O=S(=O)([N-]S(=O)(=O)C(F)(F)F)C(F)(F)F

>  <viscosity (mPa·s)>
17.41

$$$$

###

TEST_CONTEXT: 318.15 K; 101.3 kPa; Liquid; Vibrating tube method
PARAMETER: mass density (kg/m3)

>  <COMPOUND>
CCCC[n+]1ccn(C)c1.O=S(=O)([N-]S(=O)(=O)C(F)(F)F)C(F)(F)F

>  <MEASURED_NUMBER>
1416.91

$$$$
>  <COMPOUND>
CCn1cc[n+](C)c1.O=S(=O)([N-]S(=O)(=O)C(F)(F)F)C(F)(F)F

>  <MEASURED_NUMBER>
1498.27

$$$$
>  <COMPOUND>
CCOC(=O)OCC [diethyl carbonate]

>  <MEASURED_NUMBER>
946.6

$$$$
>  <COMPOUND>
COC(=O)OC [dimethyl carbonate]

>  <MEASURED_NUMBER>
1036.57

$$$$

###

Measured viscosity of individual entries
TEST_CONTEXT: 288.15 K; 101.3 kPa; Liquid; Falling or rolling sphere viscometry
PARAMETER: viscosity (mPa·s)

>  <COMPOUND>
CCOC(=O)OCC [diethyl carbonate]

>  <PARAMETER>
viscosity

>  <MEASURED_NUMBER>
0.871

$$$$
>  <COMPOUND>
COC(=O)OC [dimethyl carbonate]

>  <PARAMETER>
viscosity

>  <MEASURED_NUMBER>
0.669

$$$$
>  <COMPOUND>
CCn1cc[n+](C)c1.O=S(=O)([N-]S(=O)(=O)C(F)(F)F)C(F)(F)F

>  <PARAMETER>
viscosity

>  <MEASURED_NUMBER>
49.41

$$$$
>  <COMPOUND>
CCCC[n+]1ccn(C)c1.O=S(=O)([N-]S(=O)(=O)C(F)(F)F)C(F)(F)F

>  <PARAMETER>
viscosity

>  <MEASURED_NUMBER>
78.02

$$$$

###

TEST_CONTEXT: 293.15 K; 101.3 kPa; Liquid; Vibrating tube method

>  <COMPOUND>
COC(=O)OC [dimethyl carbonate]

>  <mass density (kg/m3)>
1069.86

$$$$
>  <COMPOUND>
CCOC(=O)OCC [diethyl carbonate]

>  <mass density (kg/m3)>
974.91

$$$$
>  <COMPOUND>
CCn1cc[n+](C)c1.O=S(=O)([N-]S(=O)(=O)C(F)(F)F)C(F)(F)F

>  <mass density (kg/m3)>
1523.47

$$$$
>  <COMPOUND>
CCCC[n+]1ccn(C)c1.O=S(=O)([N-]S(=O)(=O)C(F)(F)F)C(F)(F)F

>  <mass density (kg/m3)>
1440.84

$$$$

src = the NIST ThermoML archive (doi:10.1021/acs.jced.8b00591)
